Sourced from patent US9464082B2

# Test system: IFNγ-Induced NO Production
# TEST PROTOCOL: Nitric Oxide Suppression Assay (Suppression of IFNγ-Induced NO Production)
# Format: cell-based
# MEASUREMENT CONDITIONS: RAW264.7; RAW 264.7 mouse macrophage cells; 2 hour pre-treatment with compound (3 μM to 0.3 nM, 10 point curve); 20 ng/mL interferon gamma, ~18 hour; Griess detection; n=2-3 in duplicates
EXPERIMENTAL ENDPOINT: pIC50
The quantity pIC50 is defined as the negative base-10 logarithm of the molar concentration.

These recorded examples may help you get a feel for the data.
[[record]]
compound = "Cc1nc(-c2cccc(CCCO)c2)c2c(n1)[C@@]1(c3ccccc3)C=C(C#N)C(=O)[C@@H](C)[C@@H]1CC2"
study_system = "IFNγ-Induced NO Production"
reported = 8.81

[[record]]
compound = "C[C@@H]1C(=O)C(C#N)=C[C@]2(c3ccccc3)c3nn(C)c(-c4cccc(-c5cccc(C(=O)O)c5)c4)c3CC[C@@H]12"
study_system = "IFNγ-Induced NO Production"
reported = 7.18

[[record]]
compound = "Cc1nc(-c2cnc(O)c(Br)c2)c2c(n1)[C@@]1(c3ccccc3)C=C(C#N)C(=O)[C@@H](C)[C@@H]1CC2"
study_system = "IFNγ-Induced NO Production"
reported = 6.41


Query :: Returns the measured pIC50 for the input compound. Input: `Cc1nc(-c2cccc(CCC(=O)O)c2)c2c(n1)[C@@]1(c3ccccc3)C=C(C#N)C(=O)[C@@H](C)[C@@H]1CC2`
Result :: 6.97

Query :: Returns the measured pIC50 for the input compound. Input: `C[C@@H]1C(=O)C(C#N)=C[C@]2(c3ccccc3)c3nn(C)c(-c4cccc(-c5ccc(CNS(C)(=O)=O)cc5)c4)c3CC[C@@H]12`
Result :: 7.91

Query :: Returns the measured pIC50 for the input compound. Input: `Cc1nc(-c2ccccc2)c2c(n1)[C@@]1(c3ccccc3)C=C(C#N)C(=O)[C@@H](C)[C@@H]1CC2`
Result :: 8.00

Query :: Returns the measured pIC50 for the input compound. Input: `C[C@@H]1C(=O)C(C#N)=C[C@]2(c3cccc(C(=O)O)c3)c3n[nH]cc3CC[C@@H]12`
Result :: 5.83

Query :: Returns the measured pIC50 for the input compound. Input: C[C@@H]1C(=O)C(C#N)=C[C@]2(c3ccccc3)c3nn(C)c(-c4ccccc4)c3CC[C@@H]12 (racemic)
Result :: 7.77

###

# Test system: IFNγ-Induced NO Production
# TEST PROTOCOL: Nitric Oxide Suppression Assay (Suppression of IFNγ-Induced NO Production)
# Type: cell-based
# MEASUREMENT CONDITIONS: RAW264.7; RAW 264.7 mouse macrophage cells; 2 hour pre-treatment with compound (3 μM to 0.3 nM, 10 point curve); 20 ng/mL interferon gamma, ~18 hour; Griess detection; n=2-3 in duplicates
# Protocol: RAW 264.7, a mouse macrophage cell line, was obtained from American Type Culture Collection (Manassas Va.) and maintained in the log phase of growth in Dulbecco's Modified Eagle's Medium (DMEM), 10% heat inactivated fetal calf serum and 100 units/mL antibiotic-antimycotic (AA). Cells were cultured and maintained in a humidified incubator at 37° C. under 5% CO2 and 95% air. Cells were sub-cultured every 3 days by scraping and were not used beyond passage 20. […]
Strictly below 10 nM in IC50: Met. Otherwise: Not met.

[[record]]
molecule = "CC(C)Oc1nc(-c2ccccc2F)nc2c1CC[C@H]1[C@H](C)C(=O)C(C#N)=C[C@]21c1ccccc1"
cat = "Not met"

[[record]]
molecule = "C[C@@H]1C(=O)C(C#N)=C[C@]2(c3ccccc3)c3ncncc3CC[C@@H]12"
cat = "Met"

[[record]]
molecule = "Cc1nc(-c2cccc3cn[nH]c23)c2c(n1)[C@@]1(c3ccc(F)cc3)C=C(C#N)C(=O)[C@@H](C)[C@@H]1CC2"
cat = "Met"


Query :: Is it true that IC50 reported for `CC(=O)OCCc1cccc(-c2nc(C)nc3c2CC[C@H]2[C@H](C)C(=O)C(C#N)=C[C@]32c2ccccc2)c1` is less than 10 nM?
Result :: Met

Query :: Is it true that IC50 reported for `C[C@@H]1C(=O)C(C#N)=C[C@]2(c3cccc(C(=O)O)c3)c3ncncc3CC[C@@H]12` is less than 10 nM?
Result :: Not met

Query :: Is it true that IC50 reported for C[C@@H]1C(=O)C(C#N)=C[C@]2(c3ccccc3)c3c(cnn3Cc3ccccc3)CC[C@@H]12 (single isomer, unassigned) is less than 10 nM?
Result :: Not met

###

# Tested on: IFNγ-Induced NO Production
# TEST PROTOCOL: Nitric Oxide Suppression Assay (Suppression of IFNγ-Induced NO Production)
# Assay type: cell-based
# MEASUREMENT CONDITIONS: RAW264.7; RAW 264.7 mouse macrophage cells; 2 hour pre-treatment with compound (3 μM to 0.3 nM, 10 point curve); 20 ng/mL interferon gamma, ~18 hour; Griess detection; n=2-3 in duplicates
pIC50 for assorted compounds
The quantity pIC50 is defined as the negative base-10 logarithm of the molar concentration.

Query :: Returns the measured pIC50 for the input compound. Input: `C[C@@H]1C(=O)C(C#N)=C[C@]2(c3ccccc3)c3nn(C)c(-c4cncnc4)c3CC[C@@H]12`
Result :: 7.97

###

IC50 for assorted molecules
# System: IFNγ-Induced NO Production
# TEST PROTOCOL: Nitric Oxide Suppression Assay (Suppression of IFNγ-Induced NO Production)
# Assay type: cell-based
# MEASUREMENT CONDITIONS: RAW264.7; RAW 264.7 mouse macrophage cells; 2 hour pre-treatment with compound (3 μM to 0.3 nM, 10 point curve); 20 ng/mL interferon gamma, ~18 hour; Griess detection; n=2-3 in duplicates
# Method: RAW 264.7, a mouse macrophage cell line, was obtained from American Type Culture Collection (Manassas Va.) and maintained in the log phase of growth in Dulbecco's Modified Eagle's Medium (DMEM), 10% heat inactivated fetal calf serum and 100 units/mL antibiotic-antimycotic (AA). Cells were cultured and maintained in a humidified incubator at 37° C. under 5% CO2 and 95% air. Cells were sub-cultured every 3 days by scraping and were not used beyond passage 20. […]
Answer format reminder: number followed by unit.

These recorded examples may help you get a feel for the data.
[[record]]
molecule = "COc1ccc([C@]23C=C(C#N)C(=O)[C@@H](C)[C@@H]2CCc2c(-c4ccc5[nH]cnc5c4)nc(C)nc23)cc1 [Example 90]"
reported = "7.32 nM"

[[record]]
molecule = "Cc1nc(-c2cnc(C)s2)c2c(n1)[C@@]1(c3ccccc3)C=C(C#N)C(=O)[C@@H](C)[C@@H]1CC2 [Example 18]"
reported = "5.17 nM"

[[record]]
molecule = "C[C@@H]1C(=O)C(C#N)=C[C@]2(c3ccccc3)c3nc(-c4cccnc4)ncc3CC[C@@H]12 [Example 11]"
reported = "6.03 nM"

[[record]]
molecule = "Cc1nc(-c2cccc(-c3cccc(NS(C)(=O)=O)c3)c2)c2c(n1)[C@@]1(c3ccccc3)C=C(C#N)C(=O)[C@@H](C)[C@@H]1CC2 [Example 124]"
reported = "1.35 nM"

[[record]]
molecule = "C[C@@H]1C(=O)C(C#N)=C[C@]2(c3ccccc3)c3nn(C(=O)c4ccccc4)cc3CC[C@@H]12 [Example 38]"
reported = "75.2 nM"


Query :: Returns the measured IC50 for the input molecule. Input: Cc1nc(-c2ccc(-c3ccn[nH]3)cc2)c2c(n1)[C@@]1(c3ccc(F)cc3)C=C(C#N)C(=O)[C@@H](C)[C@@H]1CC2 [Example 83]
Result :: 16.4 nM

Query :: Returns the measured IC50 for the input molecule. Input: C[C@@H]1C(=O)C(C#N)=C[C@]2(c3ccccc3)c3c(c(-c4cncnc4)nn3C)CC[C@@H]12 [Example 179]
Result :: 1.24 nM

Query :: Returns the measured IC50 for the input molecule. Input: COC(=O)CCc1cccc(-c2nc(C)nc3c2CC[C@H]2[C@H](C)C(=O)C(C#N)=C[C@]32c2ccccc2)c1 [Example 154]
Result :: 47.5 nM

Query :: Returns the measured IC50 for the input molecule. Input: C[C@@H]1C(=O)C(C#N)=C[C@]2(c3ccccc3)c3n[nH]c(-c4cncnc4)c3CC[C@@H]12 [Example 87]
Result :: 4.18 nM

###

# Test system: IFNγ-Induced NO Production
# TEST PROTOCOL: Nitric Oxide Suppression Assay (Suppression of IFNγ-Induced NO Production)
# Format: cell-based
# MEASUREMENT CONDITIONS: RAW264.7; RAW 264.7 mouse macrophage cells; 2 hour pre-treatment with compound (3 μM to 0.3 nM, 10 point curve); 20 ng/mL interferon gamma, ~18 hour; Griess detection; n=2-3 in duplicates
Strictly below 0.02 µM in IC50: Y. Otherwise: N.

Examples with answers:
[[record]]
molecule = "C[C@@H]1C(=O)C(C#N)=C[C@]2(c3ccccc3)c3[nH]nc(-c4ccccc4)c3CC[C@@H]12 (racemic)"
study_system = "IFNγ-Induced NO Production"
cat = "N"

[[record]]
molecule = "C[C@@H]1C(=O)C(C#N)=C[C@]2(c3ccccc3)c3nn(C)c(-c4cccc(Br)c4)c3CC[C@@H]12"
study_system = "IFNγ-Induced NO Production"
cat = "N"

[[record]]
molecule = "C[C@@H]1C(=O)C(C#N)=C[C@]2(c3ccccc3)c3nn(Cc4ccccc4)cc3CC[C@@H]12 (single isomer, unassigned)"
study_system = "IFNγ-Induced NO Production"
cat = "N"


Query :: Is it true that IC50 reported for `C[C@@H]1C(=O)C(C#N)=C[C@]2(c3cccc(F)c3)c3ncncc3CC[C@@H]12` is less than 0.02 µM?
Result :: Y

Query :: Is it true that IC50 reported for `CC(=O)n1cc(-c2nc(C)nc3c2CC[C@H]2[C@H](C)C(=O)C(C#N)=C[C@]32c2ccccc2)cn1` is less than 0.02 µM?
Result :: Y

Query :: Is it true that IC50 reported for `COc1nc(Cl)nc2c1CC[C@H]1[C@H](C)C(=O)C(C#N)=C[C@]21c1ccccc1` is less than 0.02 µM?
Result :: Y

Query :: Is it true that IC50 reported for C[C@@H]1C(=O)C(C#N)=C[C@]2(c3ccccc3)c3c(c(-c4ccccc4)nn3C)CC[C@@H]12 (racemic) is less than 0.02 µM?
Result :: Y

Query :: Is it true that IC50 reported for `Cc1nc(-c2ccc3ncccc3c2)c2c(n1)[C@@]1(c3ccccc3)C=C(C#N)C(=O)[C@@H](C)[C@@H]1CC2` is less than 0.02 µM?
Result :: N

Query :: Is it true that IC50 reported for `C[C@@H]1C(=O)C(C#N)=C[C@]2(c3ccc(F)cc3)c3ncncc3CC[C@@H]12` is less than 0.02 µM?
Result :: Y

Query :: Is it true that IC50 reported for `CCNc1ncc2c(n1)[C@@]1(c3ccccc3)C=C(C#N)C(=O)[C@@H](C)[C@@H]1CC2` is less than 0.02 µM?
Result :: N

Query :: Is it true that IC50 reported for COc1cccc([C@]23C=C(C#N)C(=O)[C@@H](C)[C@@H]2CCc2cn(C)nc23)c1 (racemic) is less than 0.02 µM?
Result :: N

Query :: Is it true that IC50 reported for `C[C@@H]1C(=O)C(C#N)=C[C@]2(c3ccccc3)c3nn(C)c(-c4ccnnc4)c3CC[C@@H]12` is less than 0.02 µM?
Result :: Y

Query :: Is it true that IC50 reported for `C[C@@H]1C(=O)C(C#N)=C[C@]2(c3ccccc3)c3nn(C)c(-c4cccnc4)c3CC[C@@H]12` is less than 0.02 µM?
Result :: Y

Query :: Is it true that IC50 reported for `COc1nc(Nc2ccc(Br)cc2)nc2c1CC[C@H]1[C@H](C)C(=O)C(C#N)=C[C@]21c1ccccc1` is less than 0.02 µM?
Result :: N
